Recorded percent inhibition of the delayed rectifier potassium current for the following compounds
Molecular target: delayed rectifier current (Ikv), specifically Ikv 1.5 subtype (Homo sapiens)
Sequence (P22460 whole entry): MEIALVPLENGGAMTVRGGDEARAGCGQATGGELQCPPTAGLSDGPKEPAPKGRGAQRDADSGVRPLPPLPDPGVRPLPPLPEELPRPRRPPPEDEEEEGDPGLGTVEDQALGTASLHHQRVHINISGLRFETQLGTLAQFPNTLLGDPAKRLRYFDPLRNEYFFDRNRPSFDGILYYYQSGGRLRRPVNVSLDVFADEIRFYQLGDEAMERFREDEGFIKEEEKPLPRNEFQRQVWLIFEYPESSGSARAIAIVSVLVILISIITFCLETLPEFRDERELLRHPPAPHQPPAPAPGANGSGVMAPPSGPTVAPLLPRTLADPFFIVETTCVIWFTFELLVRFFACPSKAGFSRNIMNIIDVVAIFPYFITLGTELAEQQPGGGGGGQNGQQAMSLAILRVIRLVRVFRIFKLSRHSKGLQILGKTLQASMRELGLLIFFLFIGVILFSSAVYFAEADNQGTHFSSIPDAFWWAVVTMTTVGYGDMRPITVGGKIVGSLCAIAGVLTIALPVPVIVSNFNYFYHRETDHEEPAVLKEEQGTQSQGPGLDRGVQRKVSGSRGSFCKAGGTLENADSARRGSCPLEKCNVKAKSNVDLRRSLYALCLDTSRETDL
Assay: Whole cell patch clamp recordings (K+ channels)
Assay type: cell-based
Settings: at a concentration of Geranium oil that gave 40% inhibition
The reply should read as a number followed by its unit.

- CC(C)=CCC/C(C)=C/CO [geraniol, 2,6-Octadien-1-ol, 3,7-dimethyl-, (2E)-]: 26%
- CC(C)=CC1CC(C)CCO1 (stereo not drawn) [rose oxide, Rose Oxide]: 14%
- C=C(C)C1CC=C(C)C(=O)C1 (stereo not drawn) [carvone, Carvone]: 22%
- CC(C)[C@@H]1CC[C@@H](C)CC1=O [menthone, Menthone]: 22%
- C=CC(C)(O)CCC=C(C)C (stereo not drawn) [linalool, Linalool]: 18%

Query compound follows.
Q: Which percent inhibition of the delayed rectifier potassium current value is on record for CC(C)=CCCC(C)CCO (stereo not drawn) [citronellol, 3,7-dimethyloct-6-en-1-ol] ?
A: 27%

Reference for the values: patent US9999601B2
